# assay_overview: Enzyme screens for resolution of racemic N-(acetyl)-4-keto-D,L-proline methyl ester (Example 7, comparative)
# Type: biochemical
# recorded_conditions: 0.100M racemate; 0.20M sodium succinate pH 6.0; 5 h; 5.0 to 30 mg/mL enzyme; 25° C.
recorded_metric: conv. (percent conversion of the racemate) (%)

protease, trypsin porcine pancreas: commercial trypsin, source porcine pancreas (protein, UniProt P00761 9-231, looked up) Trypsin: IVGGYTCAANSIPYQVSLNSGSHFCGGSLINSQWVVSAAHCYKSRIQVRLGEHNIDVLEGNEQFINAAKIITHPNFNGNTLDNDIMLIKLSSPATLNSRVATVSLPRSCAAAGTECLISGWGNTKSSGSSYPSLLQCLKAPVLSDSSCKSSYPGQITGNMICVGFLEGGKDSCQGDSGGPVVCNGQLQGIVSWGYGCAQKNKPGVYTKVCNYVNWIQQTIAAN; 0

Just for reference, patent US5928933A is where these values come from.
